Molecular target: UniProt:P34980
Sequence (P34980 1-361 isoform P34980-2): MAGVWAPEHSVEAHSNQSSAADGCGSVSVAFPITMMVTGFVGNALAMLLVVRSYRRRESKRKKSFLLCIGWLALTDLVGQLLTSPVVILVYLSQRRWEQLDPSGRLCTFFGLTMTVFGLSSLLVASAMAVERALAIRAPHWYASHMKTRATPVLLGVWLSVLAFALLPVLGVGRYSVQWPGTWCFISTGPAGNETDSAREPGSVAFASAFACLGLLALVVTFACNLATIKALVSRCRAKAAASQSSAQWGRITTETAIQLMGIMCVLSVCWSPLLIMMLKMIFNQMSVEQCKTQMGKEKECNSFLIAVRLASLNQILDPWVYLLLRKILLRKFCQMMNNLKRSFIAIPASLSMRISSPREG
Assay: Rat EP3 receptor agonistic/antagonistic action (intracellular Ca2+, FLIPR, HEK293 stable expression cells)
Details: inhibition of intracellular Ca2+ increasing action by PGE2; read-out: RatEP3 Antagonistic Action IC50
pIC50: −log10 of the molar value. Where a name gives a salt, the structure may show the parent alone.

compound	pIC50
CN(Cc1c(Cl)cc(Cl)c(=O)n1CCc1ccc(C(=O)O)cc1)c1cccc(Cl)c1 [Example 160]	≤ 5.00
O=C(O)c1ccc(CCn2c(CNc3cccc(OC(F)(F)F)c3)c(Cl)cc(Cl)c2=O)cc1 [Example 107]	< 5.00
CCC[C@H]1CCCN1Cc1c(Cl)cc(Cl)c(=O)n1CCc1ccc(C(=O)O)cc1 [Example 17, trifluoroacetate]	< 5.00
O=C(O)c1ccc(CCn2c(CN3CCc4ccc(F)cc43)c(Cl)cc(Cl)c2=O)cc1 [Example 9]	< 5.00

Source: patent US20110082133A1
